Target system: T1, TNFR1 (Homo sapiens, UniProt P19438)
T1 chain: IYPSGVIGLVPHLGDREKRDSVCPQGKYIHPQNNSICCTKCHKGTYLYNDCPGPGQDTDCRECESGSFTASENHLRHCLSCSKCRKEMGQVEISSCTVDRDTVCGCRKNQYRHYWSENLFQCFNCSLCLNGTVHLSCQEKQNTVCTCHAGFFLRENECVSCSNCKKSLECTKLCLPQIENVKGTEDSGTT
Assay: yeast display SC50
Reported property: apparent Kd (screen) (nM)

Binder	apparent Kd (screen) (nM)
K29T (designed binder) SMEEEVEKAAKEYEKKKKEAIEKHLEKLTAKDKEAAERFLKELEEAAKEYAKDEAKTMSEEEAKRRAKKYKEKVLLSELSEEEQKEIKEAEEKLVRTILKYVEEAAK	0.593

A. K56N (designed binder) SMEEEVEKAAKEYEKKKKEAIEKHLEKLKAKDKEAAERFLKELEEAAKEYAKDEANTMSEEEAKRRAKKYKEKVLLSELSEEEQKEIKEAEEKLVRTILKYVEEAAK
B. I87Q (designed binder) SMEEEVEKAAKEYEKKKKEAIEKHLEKLKAKDKEAAERFLKELEEAAKEYAKDEAKTMSEEEAKRRAKKYKEKVLLSELSEEEQKEQKEAEEKLVRTILKYVEEAAK
query: So which one has the bigger apparent Kd (screen) here, A or B ? Mark your answer with the label of the selected entry.
result: A
(A: 4.39 nM, B: 3 nM)

Ref: paper PMC12416549
